# Test system: ES-D3 cells
# protocolDescription: ES-D3 cell differentiation assay (differentiation into contracting cardiomyocytes)
# Type: cell-based, mouse
# testSettings: BMCd50 divided by relative Papp value (BeWo model)
valueKind: Corrected BMCd50 (µM)
Form entry: value (µM) — number only.

Previously resolved entries follow.
* CC1CC(C)OC(Cn2cncn2)(c2ccc(Oc3ccc(Cl)cc3)cc2Cl)O1 (centres unmarked) | 21.0
* OC(c1cccnc1)c1c(-c2ccc(F)cc2F)noc1-c1ccc(Cl)cc1F (centres unmarked) | 23.3
* CC(c1nc(-c2ccc(C#N)cc2)cs1)C(O)(Cn1cncn1)c1ccc(F)cc1 (centres unmarked) | 18.1

Input: What value of measured Corrected BMCd50 is listed for OC(c1cccnc1)c1c(-c2ccc(F)cc2F)csc1-c1ccc(F)cc1F (centres unmarked) ?
Output: 141.8

Input: Another: CC(c1nc(-c2ccc(C#N)cc2)cs1)C(O)(Cn1ccnc1)c1ccc(F)cc1 (centres unmarked)
Output: 3.8

###

# Tested on: time-mated Wistar rats
# protocolDescription: in vivo maternal and prenatal developmental toxicity screening study (OECD 414 principles)
# testSettings: rat, gavage GD 6–19, 600 mg/kg
Marks after values point to notes of the source that are not given here.
// reported Postimplantation loss (%) for each item listed

# count of solved cases: 3
* CC1CC(C)OC(Cn2cncn2)(c2ccc(Oc3ccc(Cl)cc3)cc2Cl)O1 (stereo not shown) [compound 0600] | 7.0%
* OC(c1cccnc1)c1c(-c2ccc(F)cc2F)noc1-c1ccc(Cl)cc1F (stereo not shown) [compound 0594] | 14.9%
* CC(c1nc(-c2ccc(C#N)cc2)cs1)C(O)(Cn1cncn1)c1ccc(F)cc1 (stereo not shown) [compound 0596] | 8.6%

Let us examine a further case.
Input: Would you kindly share the measured Postimplantation loss (%) for OC(c1cccnc1)c1c(-c2ccc(F)cc2F)csc1-c1ccc(F)cc1F (stereo not shown) [compound 0595] ?
Output: 100.0** %

###

# key: entry, value: Papp at 30 min, 50 μM
# protocolDescription: in vitro BeWo transport model (placental transfer)
# testSettings: human
# number only, unit ×10⁻⁶ cm/s dropped from output

Example cases with answers are listed next.
• CC(c1nc(-c2ccc(C#N)cc2)cs1)C(O)(Cn1ccnc1)c1ccc(F)cc1 (stereo not drawn) [compound 0599] = 18.4
• CC(c1nc(-c2ccc(C#N)cc2)cs1)C(O)(Cn1cncn1)c1ccc(F)cc1 (stereo not drawn) [compound 0596] = 24.4

Input: Look at this compound and give its reported Papp at 30 min, 50 μM. CC1(C)S[C@@H]2[C@H](NC(=O)[C@H](N)c3ccc(O)cc3)C(=O)N2[C@H]1C(=O)O [Amoxicillin, amoxicillin, reference compound]
Output: 6.5

###

Listing of recorded Intracellular accumulation (% of added amount) by entry.
# Test system: BeWo b30 cell layers
# protocolDescription: in vitro BeWo transport model (placental transfer)
# testSettings: BeWo cells, 50 μM (25 nmol) apical, at 90 min
# Protocol: To study placental transfer of test compounds, BeWo transport experiments were performed as described previously (Li et al. [2013]). […] The barrier-forming capacity of the BeWo cell layers was evaluated by measuring the transepithelial electrical resistance (TEER) of the cell monolayer using a Millicell ERS-2 Volt-Ohm Meter (Millipore, USA) at day 6 postseeding as described previously (Li et al. [2013]). […]

• OC(c1cccnc1)c1c(-c2ccc(F)cc2F)csc1-c1ccc(F)cc1F (stereo not drawn) = 79 % of added amount

Input: Entry CC1CC(C)OC(Cn2cncn2)(c2ccc(Oc3ccc(Cl)cc3)cc2Cl)O1 (stereo not drawn) has what Intracellular accumulation (% of added amount)?
Output: 66 % of added amount

Input: Repeat with OC(c1cccnc1)c1c(-c2ccc(F)cc2F)noc1-c1ccc(Cl)cc1F (stereo not drawn)
Output: 24 % of added amount

Attribution: paper PMC4830886
